Catalogue of molecules with associated inhibition
assay: HepG2 cytotoxicity, primary screen, cytotoxicity control for P. falciparum antimalarial project, cell-based, ATP luminescence (AID 2303); conditions: HepG2 viability, 24-48 h, at 10 µM, stronger effect = higher value;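 note: 0% = DMSO wells and 100% = digitonin-killed cells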
Form entry: value (%) — number only.

Example entries and their recorded answers appear below.
[[record]]
molecule = "CCCC(C)Nc1nc(C)cc(N[C@@H](CC(C)C)C(=O)NCc2ccc(C)cc2)n1 (some centres undefined)"
unit_spec = "%"
recorded_measurement = 16

[[record]]
molecule = "Cc1noc(C)c1-c1cccc(CNCc2cccc(-c3csc(-c4nc5ccccc5[nH]4)c3)c2)c1"
unit_spec = "%"
recorded_measurement = 32

[[record]]
molecule = "CC1(C)C(=O)NC2=C1C(=O)C(=O)c1ccccc12"
unit_spec = "%"
recorded_measurement = -8

[[record]]
molecule = "O=C(NCCCCN1CC[C@@H]2c3cccc(O)c3CC[C@H]21)c1ccc(-c2ccccc2)cc1"
unit_spec = "%"
recorded_measurement = 23

[[record]]
molecule = "COc1ccc(-c2cccc(NC(=O)c3cccc(Cl)c3)c2)cc1CN1CCNCC1"
unit_spec = "%"
recorded_measurement = 29

[[record]]
molecule = "COc1ccccc1NC(=O)c1cc(C(=O)c2cc(Cl)ccc2O)cn(-c2ccccc2OC)c1=O"
unit_spec = "%"
recorded_measurement = 9

[[record]]
molecule = "COc1ccc(NC(=O)NC2CCN(CCCOc3ccnc4cc(Cl)ccc34)C2)cc1OC (centres undefined)"
unit_spec = "%"
recorded_measurement = 6

[[record]]
molecule = "CCN(CC)c1cc(C)c2cc(NC(=O)c3cc(=O)c4ccccc4o3)ccc2n1"
unit_spec = "%"
recorded_measurement = 14


# input for lookup
Q: inhibition lookup needed for Cc1cccc2[nH]c(-c3ccc(-c4ccc(CN5CCCCC5CO)cc4)cc3)nc12 (centres undefined) , thanks.
Result: 32

The measurements presented in this section are drawn from PubChem BioAssay.
